Kindly supply the reported cAMP released with respect to control, 100 nM peptide, UMR-106 cells values for the records listed here.
Molecular target: T1, rat PTH-1R (rat PTHR endogenously expressed on UMR-106 rat osteosarcoma cells) (rat, UniProt P25961 27-591)
T1 sequence (looked up): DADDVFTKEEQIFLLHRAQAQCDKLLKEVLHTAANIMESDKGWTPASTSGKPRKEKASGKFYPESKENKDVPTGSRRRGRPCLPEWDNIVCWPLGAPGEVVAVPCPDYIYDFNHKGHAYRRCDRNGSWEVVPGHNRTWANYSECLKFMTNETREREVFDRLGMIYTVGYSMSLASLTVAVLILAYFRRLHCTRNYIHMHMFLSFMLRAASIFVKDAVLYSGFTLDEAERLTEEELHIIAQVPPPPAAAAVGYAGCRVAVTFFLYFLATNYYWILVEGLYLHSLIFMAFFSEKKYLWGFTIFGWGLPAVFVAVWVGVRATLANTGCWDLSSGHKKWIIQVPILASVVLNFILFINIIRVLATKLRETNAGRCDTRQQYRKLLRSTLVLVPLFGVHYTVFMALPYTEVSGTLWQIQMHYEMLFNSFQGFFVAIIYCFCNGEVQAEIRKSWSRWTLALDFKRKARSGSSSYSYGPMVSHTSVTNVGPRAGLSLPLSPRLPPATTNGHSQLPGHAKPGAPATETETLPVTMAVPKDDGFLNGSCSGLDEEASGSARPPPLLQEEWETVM
Assay: cell-based or functional assay
Where no end group is shown, it is not given here. [ ]: non-standard residue; d: D form. Arg(NO2) = N=C(NCCC[C@H](N)C(=O)O)N[N+](=O)[O-]; αMePhe(2,6-F2) = C[C@](N)(Cc1c(F)cccc1F)C(=O)O; αMePhe(2-F) = C[C@](N)(Cc1ccccc1F)C(=O)O; hArg = N=C(N)NCCCC[C@H](N)C(=O)O; hCit = NC(=O)NCCCC[C@H](N)C(=O)O; αMeF = C[C@](N)(Cc1ccccc1)C(=O)O; Cit = NC(=O)NCCC[C@H](N)C(=O)O; αMeP = C[C@@]1(C(=O)O)CCCN1; Nle = CCCC[C@H](N)C(=O)O; Orn = NCCC[C@H](N)C(=O)O; Ac5c = NC1(C(=O)O)CCCC1; Ac3c = NC1(C(=O)O)CC1; Aib = CC(C)(N)C(=O)O

Below, each entry is followed by its recorded cAMP released with respect to control, 100 nM peptide, UMR-106 cells result.
binder: [Aib]V[Aib]EIQ[αMePhe(2,6-F2)][Nle]HQ[hArg][Aib][Cit][αMePhe(2-F)] [Seq. ID. 132]
result: 101 percent of control
--
binder: [Ac5c]V[Aib]EIQ[αMePhe(2-F)][Nle]HQ[Aib][Aib][Cit][αMePhe(2-F)] [Seq. ID. 540]
result: 75 percent of control
--
binder: [Ac5c]V[Aib]EIQ[αMePhe(2-F)][Nle]HQ[Orn][Aib][Cit][αMePhe(2,6-F2)] [Seq. ID. 292]
result: 120 percent of control

List cAMP released with respect to control, 100 nM peptide, UMR-106 cells for every entry below, keeping the order given.
1. [Ac5c]V[Aib]EIQ[αMePhe(2-F)][Nle]HQ[hCit][Aib][αMePhe(2,6-F2)][αMePhe(2-F)] [Seq. ID. 444]
2. [Aib]V[Aib]EIQ[αMePhe(2,6-F2)][Nle]HQ[αMePhe(2,6-F2)][Aib][Cit][αMePhe(2,6-F2)] [Seq. ID. 486]
3. [Ac3c]V[Aib]EIQ[αMePhe(2,6-F2)][Nle]HQ[hArg][Aib][Aib][αMePhe(2-F)] [Seq. ID. 174]
4. [Ac5c]V[Aib]EIQLMHQ[hArg][Aib]K[αMeF] [Seq. ID. 20]
5. [Ac3c]V[Aib]EIQ[αMePhe(2-F)][Nle]HQ[hArg][αMeP]K[αMePhe(2-F)] [Seq. ID. 59]
6. [Aib]V[Aib]EIQ[αMePhe(2-F)][Nle]HQ[Aib]A[Aib][αMePhe(2-F)] [Seq. ID. 553]
7. [Aib]V[Aib]EIQ[αMePhe(2,6-F2)][Nle]HQ[hArg]A[Arg(NO2)][αMePhe(2,6-F2)] [Seq. ID. 271]

1: 81 percent of control; 2: 104 percent of control; 3: 100 percent of control; 4: 121 percent of control; 5: 84 percent of control; 6: 116 percent of control; 7: 116 percent of control

Field cAMP released with respect to control, 100 nM peptide, UMR-106 cells (entry [Aib]V[Aib]EIQ[αMePhe(2,6-F2)][Nle]HQ[hCit]A[Aib][αMePhe(2-F)] [Seq. ID. 429] ) reads 120 percent of control
